FYI, the data here is from patent US20230117034A1.

target: CDK12 (nuclear staining in CAL-120 cells) (Homo sapiens); construct: endogenous in cells; host or cells: CAL-120 human breast cancer cells (DSMZ ACC 459); assay: CDK12 nuclear protein level: immunofluorescence/high content analysis (CAL-120); assay type: cell-based; settings: CAL-120 cells, 24 h, immunofluorescence; 50% reduction of nuclear CDK12 staining intensity; median; read-out: CDK12 degradation IF, DC50- [mol/l] (median)
Sequence (Q9NYV4 whole entry): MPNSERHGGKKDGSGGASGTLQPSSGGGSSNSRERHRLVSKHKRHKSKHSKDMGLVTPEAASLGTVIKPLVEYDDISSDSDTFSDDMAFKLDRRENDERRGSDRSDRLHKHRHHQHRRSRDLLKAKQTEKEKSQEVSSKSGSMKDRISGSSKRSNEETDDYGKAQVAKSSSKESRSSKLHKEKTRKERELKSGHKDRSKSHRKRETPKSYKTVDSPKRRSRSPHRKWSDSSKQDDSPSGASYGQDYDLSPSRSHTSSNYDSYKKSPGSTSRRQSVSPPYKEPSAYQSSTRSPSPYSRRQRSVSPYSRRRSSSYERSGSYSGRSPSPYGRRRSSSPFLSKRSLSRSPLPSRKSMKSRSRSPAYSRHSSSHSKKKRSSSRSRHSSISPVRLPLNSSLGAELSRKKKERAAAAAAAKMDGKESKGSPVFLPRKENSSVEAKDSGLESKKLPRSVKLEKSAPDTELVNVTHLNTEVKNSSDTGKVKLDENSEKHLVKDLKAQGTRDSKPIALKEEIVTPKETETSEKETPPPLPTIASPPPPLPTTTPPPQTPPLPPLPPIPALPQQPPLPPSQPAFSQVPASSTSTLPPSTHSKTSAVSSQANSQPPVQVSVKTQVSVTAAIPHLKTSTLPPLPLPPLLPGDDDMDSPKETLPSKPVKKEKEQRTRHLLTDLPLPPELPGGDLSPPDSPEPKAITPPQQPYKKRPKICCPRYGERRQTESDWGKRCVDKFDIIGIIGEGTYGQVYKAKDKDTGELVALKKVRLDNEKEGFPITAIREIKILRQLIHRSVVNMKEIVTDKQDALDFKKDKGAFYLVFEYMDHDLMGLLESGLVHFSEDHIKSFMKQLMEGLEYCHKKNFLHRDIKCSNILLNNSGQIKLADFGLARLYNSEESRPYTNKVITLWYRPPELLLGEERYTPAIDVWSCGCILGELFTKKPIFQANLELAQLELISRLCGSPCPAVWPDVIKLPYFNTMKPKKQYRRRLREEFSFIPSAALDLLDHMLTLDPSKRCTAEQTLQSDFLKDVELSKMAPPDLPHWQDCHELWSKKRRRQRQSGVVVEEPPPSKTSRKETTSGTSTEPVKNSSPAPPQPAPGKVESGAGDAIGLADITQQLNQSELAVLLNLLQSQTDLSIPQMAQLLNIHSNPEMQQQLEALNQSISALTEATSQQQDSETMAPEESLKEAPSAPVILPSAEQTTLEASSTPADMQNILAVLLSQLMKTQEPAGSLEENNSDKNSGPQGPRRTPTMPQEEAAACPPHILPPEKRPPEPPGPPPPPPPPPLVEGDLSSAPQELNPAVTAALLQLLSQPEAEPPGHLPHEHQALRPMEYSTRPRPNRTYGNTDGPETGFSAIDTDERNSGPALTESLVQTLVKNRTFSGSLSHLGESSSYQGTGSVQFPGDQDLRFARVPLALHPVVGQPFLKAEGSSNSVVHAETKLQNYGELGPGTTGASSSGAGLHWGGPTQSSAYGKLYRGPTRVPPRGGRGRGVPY
Sequence (O75909 whole entry partner): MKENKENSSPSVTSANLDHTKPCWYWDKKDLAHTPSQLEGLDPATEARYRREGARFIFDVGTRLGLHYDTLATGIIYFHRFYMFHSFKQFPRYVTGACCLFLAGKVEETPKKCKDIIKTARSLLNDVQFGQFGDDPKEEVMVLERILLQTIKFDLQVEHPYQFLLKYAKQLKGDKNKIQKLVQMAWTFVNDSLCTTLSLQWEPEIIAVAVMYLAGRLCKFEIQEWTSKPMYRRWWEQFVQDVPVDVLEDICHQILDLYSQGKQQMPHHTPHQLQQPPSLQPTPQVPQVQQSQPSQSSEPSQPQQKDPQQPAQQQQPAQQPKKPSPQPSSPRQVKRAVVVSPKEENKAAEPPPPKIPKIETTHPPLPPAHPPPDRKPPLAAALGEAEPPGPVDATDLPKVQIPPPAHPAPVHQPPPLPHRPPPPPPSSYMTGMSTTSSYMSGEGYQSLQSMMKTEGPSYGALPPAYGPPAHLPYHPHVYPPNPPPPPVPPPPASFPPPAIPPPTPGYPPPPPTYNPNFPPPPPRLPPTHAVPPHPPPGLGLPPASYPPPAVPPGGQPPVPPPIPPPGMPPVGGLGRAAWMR
MEASURED ATTRIBUTE: DC50 (nM)

Below, 2 compounds whose answers are already recorded.
COMPOUND: Brc1cnn2c(NCc3nc4ccccc4[nH]3)nc(N3CCN4CCC3CC4)nc12
SYSTEM TESTED: CDK12 (nuclear staining in CAL-120 cells) (Homo sapiens)
MEASURED ATTRIBUTE: DC50
RESULT NUMBER: 9.89

COMPOUND: O=C1CN(c2nc(NCc3nc4ccccc4[nH]3)n3ncc(Br)c3n2)CCN1
SYSTEM TESTED: CDK12 (nuclear staining in CAL-120 cells) (Homo sapiens)
MEASURED ATTRIBUTE: DC50
RESULT NUMBER: 16.9

(1) FC(F)Cc1cnn2c(NCc3nc4ccccc4[nH]3)nc(N3CCOCC3)nc12.O=C(O)C(F)(F)F
(2) FC(F)(F)Oc1ccccc1-c1nnc(CNc2nc(N3CCOCC3)nc3c(Br)cnn23)[nH]1
(3) Fc1ccc2[nH]c(CNc3nc(N4CCN5CCC4CC5)nc4c(C(F)(F)F)cnn34)nc2c1F
Reorder the items by DC50, least to greatest. As an answer, provide the labels arranged in the order called for.
3, 1, 2

(a) CN1CCN(c2nc(NCc3nc4ccccc4[nH]3)n3ncc(Br)c3n2)C(CO)C1 (single isomer, unassigned) [Example 280]
(b) OC[C@H]1CCCCN1c1nc(NCc2nc3ccccc3[nH]2)n2ncc(Br)c2n1
(c) OC1CCCN(c2nc(NCc3nc4ccccc4[nH]3)n3ncc(Br)c3n2)C1 (racemic)
Put the items in sequence by DC50, from largest down. As an answer, provide the labels arranged in the order called for.
a, b, c
